Cited source for all entries: patent EP4722363A1

test system: ANGPTL3 Protein; assay: PHH free uptake, inhibition of ANGPTL3, ELISA of supernatant; type: cell-based; conditions: primary human hepatocytes, 72 hours
measurement.label: IC50 (nM)
Dear colleague, please return just the value in nM, with no unit written.

(Q) Which IC50 value is on record for 2008-010-001: GalNAc-conjugated modified ANGPTL3 siRNA, sense SEQ ID NO 40 (3'-YHZY12001), antisense SEQ ID NO 27 (sense GAGAAGAACUACAUAUAAA; antisense UUUAUAUGUAGUUCUUCUCAG; GalNAc conjugate YHZY12001 at sense 3', chemistry not fully specified) [Duplex 2008-010-001] ?
(A) 0.81

(Q) Using the record for 2008-011-002: GalNAc-conjugated modified ANGPTL3 siRNA, sense SEQ ID NO 35, antisense SEQ ID NO 28 (sense GAGAAGAACUACAUAUAAA; antisense UUUAUAUGUAGUUCUUCUCAG; GalNAc conjugated, chemically modified, pattern not given here) [Duplex 2008-011-002] , report its IC50.
(A) 0.75

(Q) Dear colleague, I am looking for the recorded IC50 of the following substance: 2008-035-001: GalNAc-conjugated modified ANGPTL3 siRNA, sense SEQ ID NO 42, antisense SEQ ID NO 28 (sense GAGAAGAACUACAUAUAAA; antisense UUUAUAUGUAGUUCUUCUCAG; GalNAc conjugated, chemically modified, pattern not given here) [Duplex 2008-035-001]
(A) 2.34

(Q) Any idea what IC50 was measured for ARO-05488-003-NAG37: GalNAc-conjugated comparator ANGPTL3 siRNA, sense SEQ ID NO 44, antisense SEQ ID NO 45 (sense GCUCAACAUAUUUGAUCAGUA; antisense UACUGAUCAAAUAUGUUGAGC; GalNAc (NAG37) conjugate, chemistry not fully specified) [reference compound] ?
(A) 7.19

(Q) IC50 lookup needed for 2008-018-002: GalNAc-conjugated modified ANGPTL3 siRNA, sense SEQ ID NO 36, antisense SEQ ID NO 27 (sense GAGAAGAACUACAUAUAAA; antisense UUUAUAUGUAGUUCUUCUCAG; GalNAc conjugated, chemically modified, pattern not given here) [Duplex 2008-018-002] , thanks.
(A) 0.96

(Q) I am curious: what IC50 value has been reported for 2002-033-001: GalNAc-conjugated modified ANGPTL3 siRNA, sense SEQ ID NO 38, antisense SEQ ID NO 12 (sense CAUAGUGAAGCAAUCUAAU; antisense AUUAGAUUGCUUCACUAUGGA; GalNAc conjugated, chemically modified, pattern not given here) [Duplex 2002-033-001] ?
(A) 1.08

(Q) What measured IC50 goes with 2008-019-002: GalNAc-conjugated modified ANGPTL3 siRNA, sense SEQ ID NO 36, antisense SEQ ID NO 28 (sense GAGAAGAACUACAUAUAAA; antisense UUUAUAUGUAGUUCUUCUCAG; GalNAc conjugated, chemically modified, pattern not given here) [Duplex 2008-019-002] ?
(A) 1.11

(Q) Which IC50 reading was recorded for the substance 2002-050-L96: L96-conjugated comparator siRNA, sense SEQ ID NO 43, antisense SEQ ID NO 18 (sense CAUAGUGAAGCAAUCUAAU; antisense AUUAGAUUGCUUCACUAUGGA; L96 GalNAc conjugate, position not given here, modification pattern not given here) [Duplex 2002-050-L96, reference compound] ?
(A) 2.6

(Q) Data request, read-out IC50, for 2002-034-002: GalNAc-conjugated modified ANGPTL3 siRNA, sense SEQ ID NO 33, antisense SEQ ID NO 13 (sense CAUAGUGAAGCAAUCUAAU; antisense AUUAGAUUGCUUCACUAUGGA; GalNAc conjugated, chemically modified, pattern not given here) [Duplex 2002-034-002]
(A) 1.3

(Q) Suppose we examine the substance 2008-035-002: GalNAc-conjugated modified ANGPTL3 siRNA, sense SEQ ID NO 37, antisense SEQ ID NO 28 (sense GAGAAGAACUACAUAUAAA; antisense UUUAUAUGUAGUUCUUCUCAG; GalNAc conjugated, chemically modified, pattern not given here) [Duplex 2008-035-002] ; what IC50 value has been reported?
(A) 2.23

(Q) State the recorded IC50 for this entry: 2008-019-001: GalNAc-conjugated modified ANGPTL3 siRNA, sense SEQ ID NO 41, antisense SEQ ID NO 28 (sense GAGAAGAACUACAUAUAAA; antisense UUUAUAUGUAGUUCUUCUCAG; GalNAc conjugated, chemically modified, pattern not given here) [Duplex 2008-019-001]
(A) 1.61
